- MEASURED_TARGET: ADRBK2 (human) (UniProt P35626)
- Sequence (P35626 whole entry, looked up): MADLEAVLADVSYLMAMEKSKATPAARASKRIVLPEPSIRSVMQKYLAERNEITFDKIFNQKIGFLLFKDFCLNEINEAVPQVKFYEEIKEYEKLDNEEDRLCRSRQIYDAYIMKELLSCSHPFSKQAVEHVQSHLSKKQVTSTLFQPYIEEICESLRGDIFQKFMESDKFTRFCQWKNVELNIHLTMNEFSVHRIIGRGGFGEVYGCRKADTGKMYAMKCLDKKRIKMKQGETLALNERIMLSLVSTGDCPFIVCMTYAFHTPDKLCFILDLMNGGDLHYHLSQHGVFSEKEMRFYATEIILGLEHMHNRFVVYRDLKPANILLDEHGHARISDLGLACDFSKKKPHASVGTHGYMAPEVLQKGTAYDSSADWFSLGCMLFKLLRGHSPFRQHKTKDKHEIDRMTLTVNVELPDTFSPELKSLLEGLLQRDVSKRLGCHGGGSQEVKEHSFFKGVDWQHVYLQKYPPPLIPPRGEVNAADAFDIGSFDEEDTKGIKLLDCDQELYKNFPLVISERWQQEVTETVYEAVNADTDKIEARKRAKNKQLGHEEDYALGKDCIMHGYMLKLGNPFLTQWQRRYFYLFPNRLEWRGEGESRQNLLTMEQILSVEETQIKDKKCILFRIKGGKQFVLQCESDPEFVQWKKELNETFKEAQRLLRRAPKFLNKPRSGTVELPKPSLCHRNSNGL
- PROTOCOL_DETAILS: radiometric filter-binding kinase assay, Kinase HotSpot
- ASSAY_CONDITIONS: compound 0.5 µM; ATP 10 µM
So I've got a bunch of molecules here, and I need their residual activity values.
Field: numeric (%). Do not append units.

get_value(item= `O=C1NC(=O)c2c1c1c3ccccc3[nH]c1c1[nH]c3cc(Br)ccc3c21` , readout=residual activity) returns 95.2

Sample `CCCCc1c(-c2ccc(O)cc2)[nH]c2nccnc12` ; residual activity observed: 96.2

So, `COc1cc2c(cc1OC)-c1[nH]nc(Nc3cccc(F)c3)c1C2` ? Its residual activity was 98.4

Entry `N#Cc1c(NC(=O)c2cccc3ccccc23)sc2c1CCCC2` , residual activity reported as 106

Just so you know, measured residual activity for `COc1cc2c(N3CCN(C(=O)Nc4ccc(OC(C)C)cc4)CC3)ncnc2cc1OCCCN1CCCCC1` came out at 97.6

# residual activity (molecule: `FC(F)(F)c1ccc(/C=C/c2nc(COc3ccc(CCCCn4ccnn4)cc3)co2)cc1` ) is 104

Looking up `Cn1cc(/C=C2\C(=O)Nc3ccc(S(N)(=O)=O)cc32)c2ccccc21` , I see its residual activity listed as 111

Sample `Cc1cc(Nc2nc(-c3ccccc3)nc3ccccc23)n[nH]1` ; residual activity observed: 106

# residual activity of `Nc1ncnc2c1cnn2-c1ccccc1` = 105

Sure, the documented residual activity for `O=c1cc(N2CCOCC2)oc2c(-c3ccccc3)cccc12` is 99.8

Just so you know, measured residual activity for `O=S(=O)(NCCNC/C=C/c1ccc(Br)cc1)c1cccc2cnccc12` came out at 101

The value of residual activity measured for the molecule `N#C/C(=C1/Nc2ccccc2S1)c1ccnc(NCCc2cccnc2)n1` turned out to be 99.1
